Kb overview
molecular target: Substance P (Cavia porcellus); construct: Strips of longitudinal muscle (derived from terminal ileum of adult male guinea pigs); from tissue; host or cells: longitudinal muscle strips of terminal ileum, adult male guinea pigs (Charles River); test: Guinea pig ileum test for Substance P antagonist effect; type: cell-based; settings: isolated guinea pig ileum longitudinal muscle strips; Schild plot analysis; 5-10 min contact time; footnote a = limited data due to solubility, b = slope significantly different from -1; read-out: Substance P Antagonist pA2 (converted)
Sequence (P30547 whole entry): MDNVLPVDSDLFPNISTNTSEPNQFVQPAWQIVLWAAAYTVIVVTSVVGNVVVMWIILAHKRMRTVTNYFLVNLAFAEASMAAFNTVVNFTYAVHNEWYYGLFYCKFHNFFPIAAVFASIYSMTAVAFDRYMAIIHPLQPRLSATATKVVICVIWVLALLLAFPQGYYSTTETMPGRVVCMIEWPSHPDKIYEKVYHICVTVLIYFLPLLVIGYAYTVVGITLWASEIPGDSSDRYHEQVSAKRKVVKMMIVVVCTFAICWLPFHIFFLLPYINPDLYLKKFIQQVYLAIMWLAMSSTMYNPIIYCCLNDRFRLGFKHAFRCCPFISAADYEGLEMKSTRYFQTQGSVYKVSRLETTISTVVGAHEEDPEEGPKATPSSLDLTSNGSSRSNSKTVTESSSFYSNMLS
Give the value in µM but do not write µM after it.

Example entries begin here.
CC(C)C[C@H](NC(=O)c1nc([C@H](Cc2ccccc2)NC(=O)[C@@H](Cc2c[nH]c3ccccc23)NC(=O)[C@@H]2CCCN2)oc1-c1c[nH]c2ccccc12)C(=O)N[C@@H](Cc1ccccc1)C(N)=O [Example 9] ... 5.01
CC(C)C[C@H](NC(=O)[C@@H](Cc1c[nH]c2ccccc12)NC(=O)c1nc([C@H](Cc2c[nH]c3ccccc23)NC(=O)[C@@H]2CCCN2)sc1-c1ccccc1)C(=O)N[C@@H](Cc1ccccc1)C(N)=O [Example 2] ... 0.126
CC(C)C[C@H](NC(=O)c1nc([C@H](Cc2ccccc2)NC(=O)[C@@H](Cc2c[nH]c3ccccc23)NC(=O)[C@@H]2CCCN2)sc1-c1c[nH]c2ccccc12)C(=O)N[C@@H](Cc1ccccc1)C(N)=O [Example 6] ... 1.26
CC(C)C[C@H](NC(=O)c1nc([C@H](Cc2ccccc2)NC(=O)[C@@H](Cc2c[nH]c3ccccc23)NC(=O)[C@@H]2CCCN2)[nH]c1-c1c[nH]c2ccccc12)C(=O)N[C@@H](Cc1ccccc1)C(N)=O [Example 10] ... 1.26

Attention now shifts to the item below.
Q: Answer with reported Kb of CC(C)c1sc([C@@H](Cc2c[nH]c3ccccc23)NC(=O)[C@H](Cc2ccccc2)NC(=O)[C@@H](Cc2c[nH]c3ccccc23)NC(=O)[C@@H]2CCCN2)nc1C(=O)NC[C@@H](N)Cc1ccccc1 [Example 25]
Ans: 0.794
